Source: ChEMBL document CHEMBL5584283

Test system: Erythrocyte
Test: Hemolytic activity in sheep RBC assessed as hemolysis incubated for 1 hr by absorbance based analysis
Format: toxicity, cell-based, Ovis aries
So I've got a bunch of molecules here, and I need their HC20 values.

CCOC(=O)C1=C(c2cccc(C(F)(F)F)c2)NC(N)=NC1c1cc(Cl)cc(Cl)c1 (centres undefined); > 64 µg/mL
CCOC(=O)C1=C(c2ccccc2)NC(N)=NC1c1ccc(OC)cc1 (centres undefined); > 64 µg/mL

Hi there! I need HC20 for each item below, if you can.
1. CCOC(=O)C1=C(c2cccc(C(F)(F)F)c2)NC(N)=NC1c1ccc(CC(C)C)cc1 (centres undefined)
2. CCOC(=O)C1=C(c2ccccc2)NC(N)=NC1c1ccccc1 (centres undefined)

64 µg/mL
> 64 µg/mL

* * *

Test system: Staphylococcus aureus
Assay: Antibacterial activity against Staphylococcus aureus ATCC 33591 assessed as reduction in bacterial growth measured after 18 hrs by two-fold serial dilution method
Format: functional
Readout type: MIC (mg/L)
Numbers only, in mg/L.

Worked examples follow.
CCOC(=O)C1=C(c2ccccc2)NC(N)=NC1c1ccc(N(C)C)cc1 (configuration not stated); 64
COc1cc(Cc2cnc(N)nc2N)cc(OC)c1OC [TRIMETHOPRIM]; 8
CCOC(=O)C1=C(c2ccccc2)NC(N)=NC1c1cccc(F)c1 (configuration not stated); 64
CCOC(=O)C1=C(c2ccccc2)NC(N)=NC1c1ccccc1C (configuration not stated); 64
CCOC(=O)C1=C(c2ccccc2)NC(N)=NC1c1ccc(F)cc1 (configuration not stated); 64

Hi there! I need MIC for each item below, if you can.
1. CCOC(=O)C1=C(c2ccccc2)NC(N)=NC1c1ccc(C)cc1C (configuration not stated)
2. CCOC(=O)C1=C(c2ccccc2)NC(N)=NC1c1cccc(C)c1 (configuration not stated)

[32, 64]
